MEASURED TARGET: Adenosine receptor A2b (Homo sapiens) (UniProt P29275)
Sequence (whole entry): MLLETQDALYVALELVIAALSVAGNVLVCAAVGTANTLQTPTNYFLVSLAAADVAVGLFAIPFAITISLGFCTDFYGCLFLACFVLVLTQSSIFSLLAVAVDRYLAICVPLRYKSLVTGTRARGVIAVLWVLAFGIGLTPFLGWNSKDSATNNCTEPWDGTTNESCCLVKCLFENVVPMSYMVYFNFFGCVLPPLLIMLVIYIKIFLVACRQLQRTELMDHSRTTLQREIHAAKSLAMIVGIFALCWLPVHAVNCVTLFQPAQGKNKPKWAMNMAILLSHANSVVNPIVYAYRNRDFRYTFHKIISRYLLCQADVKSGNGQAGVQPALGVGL
PROCEDURE SUMMARY: Displacement of [3H]PSB-603 from recombinant human adenosine receptor A2b expressed in CHO cell membranes at 1 uM
PROPERTY MEASURED: inhibition (%)

// below: answered compounds
chemical_smiles=CCN(CC)CCOc1ccc(N2CCCn3c2nc2c3c(=O)n(C)c(=O)n2C)cc1 measured_target="Adenosine receptor A2b (Homo sapiens) (UniProt P29275)" unit_info=% reported_measurement=-5
chemical_smiles=CCn1c(=O)c2c(nc3n2CCCN3CCc2ccc(O)cc2)n(CC)c1=O measured_target="Adenosine receptor A2b (Homo sapiens) (UniProt P29275)" unit_info=% reported_measurement=42
chemical_smiles=Cn1c(=O)c2c(nc3n2CCN(CCc2ccc(OCCN4CCCCC4)cc2)C3)n(C)c1=O measured_target="Adenosine receptor A2b (Homo sapiens) (UniProt P29275)" unit_info=% reported_measurement=13
chemical_smiles=CCCn1c(=O)c2c(nc3n2CCCN3c2ccc(OCCN3CCOCC3)cc2)n(CCC)c1=O measured_target="Adenosine receptor A2b (Homo sapiens) (UniProt P29275)" unit_info=% reported_measurement=3
chemical_smiles=CN(C)CCOc1ccc(CCN2CCCn3c2nc2c3c(=O)n(C)c(=O)n2C)cc1 measured_target="Adenosine receptor A2b (Homo sapiens) (UniProt P29275)" unit_info=% reported_measurement=9

[I] CCn1c(=O)c2c(nc3n2CCCN3CCc2ccc(OCCN3CCOCC3)cc2)n(CC)c1=O
[II] CCCCn1c(=O)c2c(nc3n2CCCN3CCc2ccc(OCCN(CC)CC)cc2)n(CCCC)c1=O
Exam item: Compare I and II by numeric inhibition and name the larger one. Give the chosen item's label as your response.
Marked response: II

---

MEASURED TARGET: Adenosine receptor A2a (Rattus norvegicus)
Sequence (P30543 whole entry): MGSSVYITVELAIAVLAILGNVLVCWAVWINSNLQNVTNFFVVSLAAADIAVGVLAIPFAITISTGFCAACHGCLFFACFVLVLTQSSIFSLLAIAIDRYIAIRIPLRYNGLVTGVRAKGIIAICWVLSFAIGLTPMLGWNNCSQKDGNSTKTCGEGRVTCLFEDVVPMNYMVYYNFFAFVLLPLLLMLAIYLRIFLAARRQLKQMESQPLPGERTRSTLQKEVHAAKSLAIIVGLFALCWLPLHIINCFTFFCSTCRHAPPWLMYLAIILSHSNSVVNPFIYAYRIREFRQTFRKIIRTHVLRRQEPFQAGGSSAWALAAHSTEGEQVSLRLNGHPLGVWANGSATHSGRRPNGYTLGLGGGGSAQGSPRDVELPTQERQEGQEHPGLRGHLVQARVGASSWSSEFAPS
PROCEDURE SUMMARY: Displacement of [3H]MSX2 from adenosine receptor A2a in rat brain striatal membranes
Format: cell membranes, Membrane
pKi: −log10 of the molar value.
PROPERTY MEASURED: pKi

chemical_smiles=Cn1c(=O)c2c(nc3n2CCCN3c2ccc(OCCN3CCOCC3)cc2)n(C)c1=O reported_measurement="< 6.00"
chemical_smiles=CCCn1c(=O)c2c(nc3n2CCCN3CCc2ccc(OCCN3CCOCC3)cc2)n(CCC)c1=O reported_measurement="< 6.00"

Next up:
Exam item: Give me measured pKi, please, for this compound: "Cn1c(=O)c2c(nc3n2CCCN3CCc2ccc(OCCN3CCCC3)cc2)n(C)c1=O"
Marked response: < 6.00

---

MEASURED TARGET: Adenosine receptor A3 (Homo sapiens)
PROCEDURE SUMMARY: Displacement of [3H]PSB11 from recombinant human adenosine receptor A3 expressed in CHO cell membranes at 1 uM
PROPERTY MEASURED: inhibition (%)

// below: answered compounds
chemical_smiles=CCN(CC)CCOc1ccc(CCN2CCCn3c2nc2c3c(=O)n(C)c(=O)n2C)cc1 measured_target="Adenosine receptor A3 (Homo sapiens)" unit_info=% reported_measurement=-3
chemical_smiles=CCCCn1c(=O)c2c(nc3n2CCCN3c2ccc(OCCN(CC)CC)cc2)n(CCCC)c1=O measured_target="Adenosine receptor A3 (Homo sapiens)" unit_info=% reported_measurement=44
chemical_smiles=CCCn1c(=O)c2c(nc3n2CCCN3CCc2ccc(OCCN3CCOCC3)cc2)n(CCC)c1=O measured_target="Adenosine receptor A3 (Homo sapiens)" unit_info=% reported_measurement=20

[a] CCN(CC)CCOc1ccc(CCN2CCn3c(nc4c3c(=O)n(C)c(=O)n4C)C2)cc1
[b] CCCCn1c(=O)c2c(nc3n2CCCN3c2ccc(O)cc2)n(CCCC)c1=O
Exam item: Would you kindly point out which of a and b has the smaller inhibition figure? Give the chosen item's label as your response.
Marked response: a
(a: 0%, b: 40%)

[I] CCn1c(=O)c2c(nc3n2CCCN3CCc2ccc(OCCN3CCOCC3)cc2)n(CC)c1=O
[II] CCCCn1c(=O)c2c(nc3n2CCCN3CCc2ccc(OCCN3CCOCC3)cc2)n(CCCC)c1=O
Exam item: Would you kindly point out which of I and II has the smaller inhibition figure? Give the chosen item's label as your response.
Marked response: I
(I: 7%, II: 48%)

Values were extracted from ChEMBL document CHEMBL3826885.
